- assay system: Cytochrome P450 2C9 (Homo sapiens)
- Sequence (P11712 whole entry): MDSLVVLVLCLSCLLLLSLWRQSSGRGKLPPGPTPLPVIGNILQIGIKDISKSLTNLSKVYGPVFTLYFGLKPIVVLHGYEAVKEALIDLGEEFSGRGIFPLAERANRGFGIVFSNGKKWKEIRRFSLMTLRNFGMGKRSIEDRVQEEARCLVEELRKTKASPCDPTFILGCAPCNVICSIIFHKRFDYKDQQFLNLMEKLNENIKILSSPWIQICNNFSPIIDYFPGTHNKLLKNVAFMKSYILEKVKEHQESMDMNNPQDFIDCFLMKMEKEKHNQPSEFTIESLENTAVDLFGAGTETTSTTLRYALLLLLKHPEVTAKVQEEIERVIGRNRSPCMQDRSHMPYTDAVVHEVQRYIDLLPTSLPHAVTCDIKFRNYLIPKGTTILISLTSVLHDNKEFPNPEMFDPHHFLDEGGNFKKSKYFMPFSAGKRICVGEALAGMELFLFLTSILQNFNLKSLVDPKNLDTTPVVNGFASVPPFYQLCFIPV
metric: IC50

Query: Specify IC50 for O=C(O)c1ccc2c(C3CCCCC3)c(-c3ccoc3)n(CC(=O)N3CCOCC3)c2c1 and stop.
Reply: ≥ 24 µM

====

- assay system: Cytochrome P450 2C19 (Homo sapiens, UniProt P33261)
- Sequence (P33261 whole entry): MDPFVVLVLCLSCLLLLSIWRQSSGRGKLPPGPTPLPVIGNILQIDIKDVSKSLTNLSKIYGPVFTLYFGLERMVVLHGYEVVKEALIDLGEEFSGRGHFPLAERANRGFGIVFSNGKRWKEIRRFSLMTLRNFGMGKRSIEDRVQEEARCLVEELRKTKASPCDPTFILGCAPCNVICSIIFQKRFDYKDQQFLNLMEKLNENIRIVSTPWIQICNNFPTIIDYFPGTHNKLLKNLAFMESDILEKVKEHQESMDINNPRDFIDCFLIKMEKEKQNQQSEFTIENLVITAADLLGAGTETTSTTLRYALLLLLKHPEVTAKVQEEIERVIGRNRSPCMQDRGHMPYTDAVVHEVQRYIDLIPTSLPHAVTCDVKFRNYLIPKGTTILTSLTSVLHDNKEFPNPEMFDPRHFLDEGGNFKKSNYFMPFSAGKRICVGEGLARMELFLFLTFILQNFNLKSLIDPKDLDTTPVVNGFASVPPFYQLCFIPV
pIC50: −log10 of the molar value.
metric: pIC50

Query: Provide pIC50 value for the following molecule: O=C(O)c1ccc2c(C3CCCCC3)c(-c3cccs3)n(CC(=O)N3CCC(N4CCCC4)CC3)c2c1
Reply: ≤ 4.96

====

Reported EC50 by item:
- Tested on: Hepatitis C virus
- assay overview: Antiviral activity against Hepatitis C virus subtype 1b infected in human Huh7 cells assessed as inhibition of viral RNA replication
- Type: functional, organism-based, Hepacivirus hominis, genotype 1b, Huh-7
- test settings: Hepatitis C virus, genotype 1b, Huh-7; read-out: EC50
Please give a number only; it is taken to be in nM.

Some compounds with recorded EC50:
- mol smiles: "CNC(=O)Cn1c(-c2ccoc2)c(C2CCCCC2)c2ccc(C(=O)O)cc21"
  EC50 / nM: 2000
- mol smiles: "CN(CCO)C(=O)Cn1c(-c2ccoc2)c(C2CCCCC2)c2ccc(C(=O)O)cc21"
  EC50 / nM: 1500
- mol smiles: "CN1CCN(C(=O)Cn2c(-c3ccoc3)c(C3CCCCC3)c3ccc(C(=O)O)cc32)CC1"
  EC50 / nM: 450
- mol smiles: "O=C(O)c1ccc2c(C3CCCCC3)c(-c3ccoc3)n(CC(=O)N3CCC(O)CC3)c2c1"
  EC50 / nM: 2000
- mol smiles: "Nc1ccccc1Cn1c(-c2ccoc2)c(C2CCCCC2)c2ccc(C(=O)O)cc21"
  EC50 / nM: 2900

Query: Answer with the recorded EC50 for the compound listed here: O=C(O)c1ccc2c(C3CCCCC3)c(-c3cc4ccccc4s3)n(CC(=O)N3CCC(N4CCCC4)CC3)c2c1
Reply: 1000

Query: Please list EC50 recorded for the compound CCCN(C)C(=O)Cn1c(-c2ccoc2)c(C2CCCCC2)c2ccc(C(=O)O)cc21
Reply: 1700

Query: Supply recorded EC50 for O=C(O)c1ccc2c(C3CCCCC3)c(-c3ccoc3)[nH]c2c1 here.
Reply: 6700

Query: Retrieve EC50 measured for Cn1c(-c2ccoc2)c(C2CCCCC2)c2ccc(C(=O)N[C@@H](Cc3c[nH]c4ccc(O)cc34)c3cscn3)cc21 and print it.
Reply: 50

Query: Find the measured EC50 of CN(C)C(=O)Cn1c(-c2cc3ccccc3s2)c(C2CCCCC2)c2ccc(C(=O)O)cc21 and report it.
Reply: 2500

Just for reference, ChEMBL document CHEMBL1156857 is where these values come from.
